TARGET: cloned human NR1/NR2B ion channels (Homo sapiens (Human), UniProt Q05586+Q13224)
Sequence (Q13224 27-1484, other chains not shown): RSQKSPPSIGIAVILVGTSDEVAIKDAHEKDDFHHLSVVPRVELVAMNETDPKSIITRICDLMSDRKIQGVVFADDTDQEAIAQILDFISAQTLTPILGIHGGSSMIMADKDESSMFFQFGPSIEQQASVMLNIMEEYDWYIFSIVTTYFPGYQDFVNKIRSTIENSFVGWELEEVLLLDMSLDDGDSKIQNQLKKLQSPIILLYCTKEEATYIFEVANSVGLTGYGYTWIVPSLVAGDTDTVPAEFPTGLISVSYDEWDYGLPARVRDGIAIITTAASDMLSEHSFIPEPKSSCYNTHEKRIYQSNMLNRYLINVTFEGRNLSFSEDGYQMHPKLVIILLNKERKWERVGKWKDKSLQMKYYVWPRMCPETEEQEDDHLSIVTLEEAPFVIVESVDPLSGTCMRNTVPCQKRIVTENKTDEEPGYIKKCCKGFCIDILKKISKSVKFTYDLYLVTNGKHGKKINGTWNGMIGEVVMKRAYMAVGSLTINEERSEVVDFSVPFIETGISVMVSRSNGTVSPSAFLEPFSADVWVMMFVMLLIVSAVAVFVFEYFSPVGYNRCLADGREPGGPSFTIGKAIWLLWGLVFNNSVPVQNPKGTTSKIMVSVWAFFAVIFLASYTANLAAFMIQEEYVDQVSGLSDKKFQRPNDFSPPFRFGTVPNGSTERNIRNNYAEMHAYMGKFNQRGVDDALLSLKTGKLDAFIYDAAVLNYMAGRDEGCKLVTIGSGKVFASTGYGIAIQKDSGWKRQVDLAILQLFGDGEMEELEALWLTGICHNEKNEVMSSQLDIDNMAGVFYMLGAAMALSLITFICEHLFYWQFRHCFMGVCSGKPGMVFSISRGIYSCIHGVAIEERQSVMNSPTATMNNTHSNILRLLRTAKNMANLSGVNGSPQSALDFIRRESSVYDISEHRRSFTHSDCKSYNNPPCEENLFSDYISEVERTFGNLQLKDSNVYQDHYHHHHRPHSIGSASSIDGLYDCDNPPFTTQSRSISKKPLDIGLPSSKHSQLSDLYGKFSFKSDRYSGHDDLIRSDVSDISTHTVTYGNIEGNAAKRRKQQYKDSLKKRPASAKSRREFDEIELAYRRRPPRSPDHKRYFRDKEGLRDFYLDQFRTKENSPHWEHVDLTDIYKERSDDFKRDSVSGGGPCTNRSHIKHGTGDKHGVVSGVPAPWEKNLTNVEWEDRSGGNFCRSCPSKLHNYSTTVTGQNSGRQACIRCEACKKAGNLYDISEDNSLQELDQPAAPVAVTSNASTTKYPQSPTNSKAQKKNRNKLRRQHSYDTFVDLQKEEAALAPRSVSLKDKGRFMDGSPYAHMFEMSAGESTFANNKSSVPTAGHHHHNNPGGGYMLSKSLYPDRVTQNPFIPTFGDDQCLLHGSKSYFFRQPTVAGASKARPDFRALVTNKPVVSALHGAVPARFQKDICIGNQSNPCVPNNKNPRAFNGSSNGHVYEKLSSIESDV
ASSAY_PROTOCOL: HNR2BC: effects of test articles on cloned human NR1/NR2B ion channels expressed in mammalian cells (FLIPR calcium flux)
Type: cell-based
DETAILS: cloned human NR1/NR2B ion channels, Table 5
pIC50: −log10 of the molar value.
# pIC50 >= 7 gives Yes, anything below gives No

# SAMPLE_SMILES, DISCRETE_LABEL
records = [
    ("CN(C)C(=O)Cn1cc(F)c2ncc(-c3ccc(F)c(Cl)c3)cc21", "Yes"),
    ("O=C(Cn1ccc2ncc(-c3ccc(Cl)s3)cc21)N1CCC1", "Yes"),
    ("O=C(Cn1cc(F)c2ncc(-c3ccc(F)c(F)c3F)cc21)N1CCC1", "Yes"),
    ("O=C(Cn1cc(F)c2ncc(-c3cc(F)cc(F)c3)cc21)N1CC(F)C1", "Yes"),
    ("Cc1ccc(-c2cnc3c(F)cn(CC(=O)N(C)C)c3c2)s1", "No"),
]

Check this compound for pIC50 at or above 7: CN(C)C(=O)Cn1cc(F)c2ncc(-c3cccc(C(F)(F)F)c3F)cc21 Yes

Check this compound for pIC50 at or above 7: O=C(Cn1cc(Cl)c2ncc(-c3ccc(Cl)s3)cc21)N1CCC1 Yes

Check this compound for pIC50 at or above 7: CN(C)C(=O)Cn1ccc2ncc(-c3csc(Cl)c3)cc21 Yes

Check this compound for pIC50 at or above 7: Cc1cn(CC(=O)N2CC(F)C2)c2cc(-c3cccc(C(F)(F)F)c3)cnc12 No

Check this compound for pIC50 at or above 7: Cc1cn(CC(=O)N2CC(F)(F)C2)c2cc(-c3ccc(F)c(F)c3)cnc12 No

Check this compound for pIC50 at or above 7: Cc1cccc(-c2cnc3c(F)cn(CC(=O)N4CCC4)c3c2)c1 Yes

###

TARGET: cloned human NR1/NR2B ion channels (Homo sapiens (Human), UniProt Q05586+Q13224)
ASSAY_PROTOCOL: HNR2BC: effects of test articles on cloned human NR1/NR2B ion channels expressed in mammalian cells (FLIPR calcium flux)
Type: cell-based
DETAILS: cloned human NR1/NR2B, Table 5
pIC50: −log10 of the molar value. Counter-ions that a name gives are not always drawn.
# pIC50 >= 7 gives true, anything below gives false

Consider the following illustrative entries.
# COMPOUND, TARGET, DISCRETE_LABEL
records = [
    ("O=C(Cn1cc(Cl)c2ncc(-c3ccccc3)cc21)N1CC(F)(F)C1 [Example 55]", "cloned human NR1/NR2B ion channels (Homo sapiens (Human), UniProt Q05586+Q13224)", "true"),
    ("CCN(C)C(=O)Cn1ccc2ncc(-c3ccc(F)c(C)c3)cc21 [Example 296]", "cloned human NR1/NR2B ion channels (Homo sapiens (Human), UniProt Q05586+Q13224)", "true"),
    ("O=C(Cn1cc(Br)c2ncc(-c3ccc(F)cc3)cc21)NC1CC1 [Example 17]", "cloned human NR1/NR2B ion channels (Homo sapiens (Human), UniProt Q05586+Q13224)", "true"),
]

Check this compound for pIC50 at or above 7: O=C(Cn1ccc2ncc(-c3cc(F)cc(F)c3)cc21)N1CCCC1 [Example 122] true

Check this compound for pIC50 at or above 7: Cc1cc(-c2cnc3ccn(CC(=O)C(C)C)c3c2)ccc1F [Example 187, trifluoroacetate salt] true

Check this compound for pIC50 at or above 7: O=C(Cn1cc(Cl)c2ncc(-c3ccccc3)cc21)N1CCC1 [Example 6] true

Check this compound for pIC50 at or above 7: O=C(Cn1ccc2ncc(-c3ccc(F)c(F)c3)cc21)NC1CC1 [Example 100] false
